- test: IUF_NPC2c_oligodendrocyte_migration_120hr: Leibniz Research Institute for Environmental Medicine (IUF) 120-hour Neural Progenitor Cell Migration Assay for Oligodendrocyte Migration (NPC2c) (AID 2284297);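 note: O4-positive oligodendrocyte migration distance divided by radial glia migration distance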
The source made the active and inactive calls. Rule for the calls: active = hit-call score of the fitted dose curve at least 0.9, where 1 is the maximum; inactive = score below 0.9.
Please answer using one outcome listed in active, inactive

[[record]]
compound = "O=[N+]([O-])/N=C1\\NCCN1Cc1ccc(Cl)nc1"
group_label = "inactive"

[[record]]
compound = "CCC(C)(C)C(=O)OC1=C(c2ccc(Cl)cc2Cl)C(=O)OC12CCCCC2"
group_label = "inactive"


Query string: Which outcome was assigned to O=S1OCC2C(CO1)C1(Cl)C(Cl)=C(Cl)C2(Cl)C1(Cl)Cl (centres undefined) in this test?
Result string: inactive

Query string: Which outcome was assigned to CC[C@H](C)[C@H]1O[C@]2(C=C[C@@H]1C)C[C@@H]1C[C@@H](C/C=C(\C)[C@@H](O[C@H]3C[C@H](OC)[C@@H](O[C@H]4C[C@H](OC)[C@@H](O)[C@H](C)O4)[C@H](C)O3)[C@@H](C)/C=C/C=C3\CO[C@@H]4[C@H](O)C(C)=C[C@@H](C(=O)O1)[C@]34O)O2 (tested in a mixture with another compound) in this test?
Result string: inactive

Query string: Which outcome was assigned to CC1(C)C(C=C(Cl)Cl)C1C(=O)OC(C#N)c1ccc(F)c(Oc2ccccc2)c1 (centres undefined) in this test?
Result string: inactive

Query string: Which outcome was assigned to `COP(=S)(OC)Oc1ccc([N+](=O)[O-])cc1` in this test?
Result string: inactive

Query string: Which outcome was assigned to `CC(C)N(C(=O)COc1nnc(C(F)(F)F)s1)c1ccc(F)cc1` in this test?
Result string: inactive

Query string: Which outcome was assigned to `O=C(O)C(F)(F)C(F)(F)C(F)(F)C(F)(F)C(F)(F)C(F)(F)C(F)(F)F` in this test?
Result string: inactive

Query string: Which outcome was assigned to `COP(=O)(OC)OC=C(Cl)Cl` in this test?
Result string: active

----------
- Read-out: CD69, CD69 (gene 969)
- test: BSK_SAg_CD69: BioMAP Diversity Plus: SAg Assay for CD69 Biomarker Activity (AID 2283089)
- condition label: primary human HUVEC with PBMC; actives raise or lower the signal
Active and inactive are the calls of the source. Rule for the calls: active = hit-call score of the fitted dose curve at least 0.9, where 1 is the maximum; inactive = score below 0.9.
Please answer using one outcome listed in YES (active), NO (inactive)

Worked set:
[[record]]
compound = "CC1(c2ccc(Oc3ccccc3)cc2)OC(=O)N(Nc2ccccc2)C1=O (configuration not stated)"
group_label = "YES"

[[record]]
compound = "[2H]C1([2H])[n+]2ccccc2-c2cccc[n+]2C1([2H])[2H]"
group_label = "NO"

[[record]]
compound = "Oc1ccc(Cl)cc1Cc1ccccc1"
group_label = "YES"

[[record]]
compound = "Cc1cc(C)nc(NC(=O)NS(=O)(=O)c2ccccc2C(=O)OC2COC2)n1"
group_label = "NO"

[[record]]
compound = "C#CCN1C(=O)COc2cc(F)c(N3C(=O)C4=C(CCCC4)C3=O)cc21"
group_label = "NO"


Query string: Which outcome was assigned to `CCN(CC)C(=O)SCc1ccc(Cl)cc1` in this test?
Result string: NO

Query string: Which outcome was assigned to `CNC(=O)Oc1cccc(N=CN(C)C)c1` in this test?
Result string: NO

----------
- test: ATG_NRF2_ARE_CIS: Attagene CIS-FACTORIAL HepG2 Assay for human Nuclear Factor Erythroid 2 Related Factor 2 (NFR2) response to Antioxidant Response Elements (ARE) (AID 2282992)
- condition label: HepG2 Attagene ARE/NRF2 reporter, transcription factor activity; actives raise or lower the signal
Activity calls are given as the source filed them. How the source made its calls: active means hit-call score of the fitted dose curve at least 0.9, where 1 is the maximum; inactive means score below 0.9.
Please answer using one outcome listed in 1 (yes) (active), 0 (no) (inactive)

Query string: Which outcome was assigned to CC1(C)C(C=C(Cl)Cl)C1C(=O)OC(C#N)c1ccc(F)c(Oc2ccccc2)c1 (stereo unspecified) in this test?
Result string: 1 (yes)

Query string: Which outcome was assigned to `CCC(C)(C)C(=O)OC1=C(c2ccc(Cl)cc2Cl)C(=O)OC12CCCCC2` in this test?
Result string: 1 (yes)

Query string: Which outcome was assigned to CC(C)(C)C(O)/C(=C\c1ccc(Cl)cc1Cl)n1cncn1 (stereo unspecified) in this test?
Result string: 0 (no)

Query string: Which outcome was assigned to `O=C(Nc1ccccc1)Nc1cnns1` in this test?
Result string: 1 (yes)

----------
- Read-out: Alpha-fetoprotein (AFP) gene, AFP (gene 174)
- test: LTEA_HepaRG_AFP: Life Technologies and Expression Analysis (LTEA) Assay for Alpha-fetoprotein (AFP) gene using HepaRG (AID 2283472)
- condition label: mRNA level, 48 h; actives raise or lower the signal
- Method: It is a marker of Undifferentiated hepatocyte.Data from the assay component LTEA_HepaRG_AFP was analyzed into 1 endpoint. This assay endpoint, LTEA_HepaRG_AFP, was analyzed with bidirectional fitting relative to DMSO as the negative control and baseline of activity. Using a type of inducible reporter, measures of mRNA induction for gain or loss-of-signal activity can be used to understand regulation of transcription factor activity. […]
Calls of active or inactive are those of the source. The calls were made as follows: active = hit-call score of the fitted dose curve at least 0.9, where 1 is the maximum; inactive = score below 0.9.
Please answer using one outcome listed in Y (active), N (inactive)

Worked set:
[[record]]
compound = "COP(=S)(OC)Oc1ccc(SC)c(C)c1"
group_label = "Y"

[[record]]
compound = "CCOCN(C(=O)CCl)c1c(C)cccc1CC"
group_label = "Y"

[[record]]
compound = "O=C(O)COc1ccc(Cl)cc1Cl"
group_label = "N"

[[record]]
compound = "O=S1OCC2C(CO1)C1(Cl)C(Cl)=C(Cl)C2(Cl)C1(Cl)Cl (configuration not stated)"
group_label = "Y"

[[record]]
compound = "CC(C)N(C(=O)COc1nnc(C(F)(F)F)s1)c1ccc(F)cc1"
group_label = "Y"

[[record]]
compound = "CCC(C)Nc1c([N+](=O)[O-])cc(C(C)(C)C)cc1[N+](=O)[O-] (configuration not stated)"
group_label = "Y"

[[record]]
compound = "CNC(=O)Oc1cccc(N=CN(C)C)c1"
group_label = "N"

[[record]]
compound = "CCCN(CCC)c1c([N+](=O)[O-])cc(C(F)(F)F)cc1[N+](=O)[O-]"
group_label = "N"


Query string: Which outcome was assigned to `Clc1ccccc1-c1nnc(-c2ccccc2Cl)nn1` in this test?
Result string: N

Query string: Which outcome was assigned to `COP(=S)(OC)Oc1ccc([N+](=O)[O-])cc1` in this test?
Result string: N

Query string: Which outcome was assigned to CCC(C)(NC(=O)c1cc(Cl)c(C)c(Cl)c1)C(=O)CCl (configuration not stated) in this test?
Result string: Y

Query string: Which outcome was assigned to CCOC1Oc2ccc(OS(C)(=O)=O)cc2C1(C)C (configuration not stated) in this test?
Result string: Y

----------
- target under test: mouse Cholecystokinin, CCK2 Receptor (CCKB), Cckbr (gene 12426)
- test: NVS_GPCR_mCKKBCentral: NovaScreen (NVS) G Protein-Coupled Receptor Assay for mouse Cholecystokinin, CCK2 Receptor (CCKB) (AID 2283293)
Results filed as inconclusive are left out. Activity calls are given as the source filed them. The calls were made as follows: active = hit-call score of the fitted dose curve at least 0.9, where 1 is the maximum; inconclusive = response in the unintended direction; inactive = score below 0.9.
Please answer using one outcome listed in active, inactive

Worked set:
[[record]]
compound = "CC[C@H](C)[C@H]1O[C@]2(C=C[C@@H]1C)C[C@@H]1C[C@@H](C/C=C(\\C)[C@@H](O[C@H]3C[C@H](OC)[C@@H](O[C@H]4C[C@H](OC)[C@@H](O)[C@H](C)O4)[C@H](C)O3)[C@@H](C)/C=C/C=C3\\CO[C@@H]4[C@H](O)C(C)=C[C@@H](C(=O)O1)[C@]34O)O2 (tested in a mixture with another compound)"
target_under_test = "mouse Cholecystokinin, CCK2 Receptor (CCKB), Cckbr (gene 12426)"
group_label = "active"

[[record]]
compound = "CCCN(CCOc1c(Cl)cc(Cl)cc1Cl)C(=O)n1ccnc1"
target_under_test = "mouse Cholecystokinin, CCK2 Receptor (CCKB), Cckbr (gene 12426)"
group_label = "active"


Query string: Which outcome was assigned to CC(C)(C)C(O)C(Oc1ccc(Cl)cc1)n1cncn1 (stereo not drawn) in this test?
Result string: inactive

----------
- Read-out: E-selectin (Homo sapiens) (UniProt P16581)
- Sequence (P16581 whole entry, looked up): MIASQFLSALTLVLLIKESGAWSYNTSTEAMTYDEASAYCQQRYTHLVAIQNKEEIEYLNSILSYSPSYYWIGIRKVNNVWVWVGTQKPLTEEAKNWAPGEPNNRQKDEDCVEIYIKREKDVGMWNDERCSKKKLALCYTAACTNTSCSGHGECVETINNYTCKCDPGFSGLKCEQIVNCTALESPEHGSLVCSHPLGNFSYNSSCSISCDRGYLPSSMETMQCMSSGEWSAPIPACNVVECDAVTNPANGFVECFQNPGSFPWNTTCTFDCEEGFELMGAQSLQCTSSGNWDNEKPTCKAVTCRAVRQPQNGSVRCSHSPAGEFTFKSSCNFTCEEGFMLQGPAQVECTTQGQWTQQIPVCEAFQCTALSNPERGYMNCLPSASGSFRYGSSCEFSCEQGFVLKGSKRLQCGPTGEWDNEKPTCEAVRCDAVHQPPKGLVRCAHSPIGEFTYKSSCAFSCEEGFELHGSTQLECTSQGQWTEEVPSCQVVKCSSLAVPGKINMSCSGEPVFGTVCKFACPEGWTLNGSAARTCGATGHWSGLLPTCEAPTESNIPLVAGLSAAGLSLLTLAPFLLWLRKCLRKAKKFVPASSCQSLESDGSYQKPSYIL
- test: BSK_SAg_Eselectin: BioMAP Diversity Plus: SAg Assay for Eselectin Biomarker Activity (AID 2283091)
- condition label: primary human HUVEC with PBMC; actives raise or lower the signal
Calls of active or inactive are those of the source. The calls were made as follows: active = hit-call score of the fitted dose curve at least 0.9, where 1 is the maximum; inactive = score below 0.9.
Please answer using one outcome listed in 1.0 = active, 0.0 = inactive

Worked set:
[[record]]
compound = "CCC(C)(C)C(=O)OC1=C(c2ccc(Cl)cc2Cl)C(=O)OC12CCCCC2"
group_label = 1.0

[[record]]
compound = "N#CN"
group_label = 0.0

[[record]]
compound = "CC(C)(C)C(O)/C(=C\\c1ccc(Cl)cc1Cl)n1cncn1 (stereo unspecified)"
group_label = 1.0

[[record]]
compound = "C[C@H]1[C@H](c2ccc(Cl)cc2)SC(=O)N1C(=O)NC1CCCCC1"
group_label = 1.0

[[record]]
compound = "CCOC1Oc2ccc(OS(C)(=O)=O)cc2C1(C)C (stereo unspecified)"
group_label = 1.0


Query string: Which outcome was assigned to `COc1nn(CSP(=S)(OC)OC)c(=O)s1` in this test?
Result string: 0.0

Query string: Which outcome was assigned to `CCOc1nc(NC)nc(NC(=O)NS(=O)(=O)c2ccccc2C(=O)OC)n1` in this test?
Result string: 0.0

Query string: Which outcome was assigned to `CCOCN(C(=O)CCl)c1c(C)cccc1CC` in this test?
Result string: 1.0

Query string: Which outcome was assigned to `C#CCN1C(=O)COc2cc(F)c(N3C(=O)C4=C(CCCC4)C3=O)cc21` in this test?
Result string: 1.0

Query string: Which outcome was assigned to `COC(=O)c1ccccc1S(=O)(=O)NC(=O)Nc1nc(C)nc(OC)n1` in this test?
Result string: 0.0

Query string: Which outcome was assigned to CC1(c2ccc(Oc3ccccc3)cc2)OC(=O)N(Nc2ccccc2)C1=O (stereo unspecified) in this test?
Result string: 1.0

Query string: Which outcome was assigned to O=S1OCC2C(CO1)C1(Cl)C(Cl)=C(Cl)C2(Cl)C1(Cl)Cl (stereo unspecified) in this test?
Result string: 1.0
